assay: Pharmacokinetics in conscious freely moving rats after oral administration of BYHWT extract (HPLC-MS/MS of plasma); format: in vivo, Sprague-Dawley rats; conditions: male, Sprague-Dawley, po; rat plasma, BYHWT extract 10 g/kg p.o., n = 6; read-out: Tmax (converted)
# if measured Tmax < 40 min: 1  # else: 0

See these solved cases before continuing.
>>> class_name("C[C@@]12C[C@@]3(O)O[C@@H](O1)[C@]1(COC(=O)c4ccccc4)[C@H]3C[C@@]12O[C@@H]1O[C@H](CO)[C@@H](O)[C@H](O)[C@H]1O [Paeoniflorin, paeoniflorin]")
1
>>> class_name("COc1ccc(-c2coc3cc(O)ccc3c2=O)cc1 [Formononetin, formononetin]")
1
>>> class_name("CCC/C=C1\\OC(=O)C2=C1CCC=C2 [Ligustilide, ligustilide]")
0
>>> class_name("COc1ccc(-c2coc3cc(O[C@@H]4O[C@H](CO)[C@@H](O)[C@H](O)[C@H]4O)ccc3c2=O)cc1 [Ononin, ononin]")
1

# next compound below
API: query returns whether the compound falls strictly under 40 min in Tmax. Query: COc1ccc(-c2coc3cc(O[C@@H]4O[C@H](CO)[C@@H](O)[C@H](O)[C@H]4O)ccc3c2=O)cc1O [Calycosin-7-O-β-D-glucoside, calycosin-7-O-β-D-glucoside]
1

* * *

experiment: Pharmacokinetics in conscious freely moving rats after oral administration of BYHWT extract (HPLC-MS/MS of plasma); format: in vivo, Sprague-Dawley rats; settings: rat plasma, BYHWT extract 10 g/kg p.o., n = 6
reported.endpoint: AUC (ng·h/mL)
Numbers only, in ng·h/mL.

Please report the recorded AUC for COc1ccc(-c2coc3cc(O)ccc3c2=O)cc1O .
5130

* * *

experiment: Stability of the analytes in rat plasma samples (freeze-thaw, short-term, long-term, autosampler); type: in vitro ADME; conditions: concentration 10 (µg/mL), autosampler 8°C 12 h, n = 3
Assignment: determine reported Stability (%) Autosampler stability for the given molecules.
Numbers only, in %.

>>> result_value("CC(C)(O)[C@@H]1CC[C@](C)([C@H]2[C@@H](O)C[C@@]3(C)[C@@H]4C[C@H](O[C@@H]5O[C@H](CO)[C@@H](O)[C@H](O)[C@H]5O)[C@H]5C(C)(C)[C@@H](O[C@@H]6OC[C@@H](O)[C@H](O)[C@H]6O)CC[C@@]56C[C@@]46CC[C@]23C)O1 [Astragaloside IV, astragaloside IV]")
3.3

Now for the molecule whose Stability (%) Autosampler stability we want.
Stability (%) Autosampler stability for CC(=O)O[C@H]1[C@H](O[C@H]2CC[C@]34C[C@]35CC[C@]3(C)[C@@H]([C@@]6(C)CC[C@@H](C(C)(C)O)O6)[C@@H](O)C[C@@]3(C)[C@@H]5C[C@H](O[C@@H]3O[C@H](CO)[C@@H](O)[C@H](O)[C@H]3O)[C@H]4C2(C)C)OC[C@@H](O)[C@@H]1O [Astragaloside II, astragaloside II] ?
−0.3

* * *

assay: Stability of the analytes in rat plasma samples (freeze-thaw, short-term, long-term, autosampler); assay type: in vitro ADME; details: concentration 10 (µg/mL), autosampler 8°C 12 h, n = 3
reported.endpoint: Stability (%) Autosampler stability
One number for each entry, in %.

# annotated cases, reported Stability (%) Autosampler stability shown
>>> result_value("CC(=O)OC1C(O)COC(OC2CCC34CC35CCC3(C)C(C6(C)CCC(C(C)(C)O)O6)C(O)CC3(C)C5CC(OC3OC(CO)C(O)C(O)C3O)C4C2(C)C)C1OC(C)=O (stereo not shown) [Astragaloside I, astragaloside I]")
4.3
>>> result_value("COc1ccc(-c2coc3cc(O[C@@H]4O[C@H](CO)[C@@H](O)[C@H](O)[C@H]4O)ccc3c2=O)cc1O [Calycosin-7-O-β-D-glucoside, calycosin-7-O-β-D-glucoside]")
2.1
>>> result_value("CCC/C=C1\\OC(=O)C2=C1CCC=C2 [Ligustilide, ligustilide]")
13
>>> result_value("COc1ccc(-c2coc3cc(O)ccc3c2=O)cc1O [Calycosin, calycosin]")
"−3.5"
>>> result_value("COc1ccc(-c2coc3cc(O)ccc3c2=O)cc1 [Formononetin, formononetin]")
"−13"

Lab note: each compound below needs its Stability (%) Autosampler stability filled in.
1. COc1ccc(-c2coc3cc(O[C@@H]4O[C@H](CO)[C@@H](O)[C@H](O)[C@H]4O)ccc3c2=O)cc1 [Ononin, ononin]
2. C[C@@]12C[C@@]3(O)O[C@@H](O1)[C@]1(COC(=O)c4ccccc4)[C@H]3C[C@@]12O[C@@H]1O[C@H](CO)[C@@H](O)[C@H](O)[C@H]1O [Paeoniflorin, paeoniflorin]

1. −7.0
2. −3.3
